biological target: Ubiquitin carboxyl-terminal hydrolase 10 (Homo sapiens) (UniProt Q14694); assay: blocks human USP10 ubiquitin-rhodamine cleavage (AID 1645856); details: purified USP10, Ub-rhodamine fluorescence, 60 min; at 20 µM; hits give high values
Sequence (Q14694 whole entry, looked up): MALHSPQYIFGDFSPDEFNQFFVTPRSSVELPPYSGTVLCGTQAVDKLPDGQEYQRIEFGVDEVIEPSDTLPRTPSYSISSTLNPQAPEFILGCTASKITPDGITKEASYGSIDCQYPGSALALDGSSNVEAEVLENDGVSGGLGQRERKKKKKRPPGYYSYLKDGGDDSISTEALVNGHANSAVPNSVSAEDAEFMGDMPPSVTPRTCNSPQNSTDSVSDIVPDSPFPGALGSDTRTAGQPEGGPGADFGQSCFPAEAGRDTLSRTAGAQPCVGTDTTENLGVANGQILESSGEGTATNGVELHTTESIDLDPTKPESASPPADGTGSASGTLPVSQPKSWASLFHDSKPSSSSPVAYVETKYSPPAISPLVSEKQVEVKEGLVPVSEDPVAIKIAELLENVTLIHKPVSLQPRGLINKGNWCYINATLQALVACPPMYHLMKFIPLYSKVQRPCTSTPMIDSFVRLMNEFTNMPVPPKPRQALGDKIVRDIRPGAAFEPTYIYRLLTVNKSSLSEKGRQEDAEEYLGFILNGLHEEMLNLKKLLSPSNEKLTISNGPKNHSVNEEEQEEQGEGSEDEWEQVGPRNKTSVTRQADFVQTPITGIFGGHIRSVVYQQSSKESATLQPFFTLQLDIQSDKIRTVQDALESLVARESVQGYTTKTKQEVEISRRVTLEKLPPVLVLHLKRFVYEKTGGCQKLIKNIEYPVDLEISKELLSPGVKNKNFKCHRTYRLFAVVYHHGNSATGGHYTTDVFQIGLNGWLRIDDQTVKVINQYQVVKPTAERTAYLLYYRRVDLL
The campaign covered roughly 47,000 compounds. About 510 (1.1%) were called active. The sample holds actives, similar compounds and a random draw of the others, so the mix is not that of the screen.
Assay Endpoint: inhibition (%)
Give bare numbers, in %.

Field: example entries. Status: answers known.
// inhibition value for Cc1nn(-c2ccc(F)cc2)c(C)c1S(=O)(=O)NC1CC1 : -2.46

Notebook: Cc1ccc(CC(=O)N2CCCC(c3ccncn3)C2)s1 (stereo unspecified) , inhibition read as -2.71

The recorded inhibition for Cc1ncccc1Oc1nccnc1C1CCNCC1 is 0.116

Sure, the documented inhibition for O=C(CN(Cc1ccccc1Cl)S(=O)(=O)c1ccccc1F)NC(c1ccccc1)c1ccccc1 is 6.49

// inhibition value for COc1ccc(CC(=O)N2CCC3(C2)C(=O)N(C)c2ccccc23)cc1 (stereo unspecified) : -4.15

Looking up CCc1nnc(-c2cc(S(=O)(=O)Nc3ccccc3F)c[nH]2)o1 , I found its inhibition recorded as -2.11

Form field inhibition, entry Cn1c(=O)c2c3c(cnc2n(C)c1=O)C(=O)CC(c1ccccc1)C3 (stereo unspecified) : -1.08

Record O=c1ccc(S(=O)(=O)N2CCOCC2)cn1Cc1ccccc1 . Reported inhibition: -0.385

// inhibition lookup, compound = CCOC(=O)C1CCN(C(=O)c2cnc(Nc3ccc(C)c(Cl)c3)c3ccccc23)CC1 , result: 6.16

Consider CC1CCN(C(=O)C2CCN(C(=O)c3ccc4c(c3)nnn4C3CCCC3)CC2)CC1 . Its measured inhibition is -0.291

Moving on to another compound below.
// inhibition lookup, compound = Cc1ccc(NC(=O)COC(=O)C2CC(=O)N(c3cccc(C)c3C)C2)cc1 (stereo unspecified) , result: -7.32
